RUN PARAMETERS: buffer; pH 7.4; 200.0 µM
EXPERIMENTAL READOUT: solubility kinetic (µg/mL)
Only the number, expressed in µg/mL, is required.

The examples below pair each entry with its known result.
Cc1onc(-c2c(Cl)cccc2Cl)c1C(=O)Nc1ccc(Cl)cn1 : 3.9
COc1ccc(Cl)cc1S(=O)(=O)NCCCn1ccnc1 : 48.6
CCc1ccccc1NC(=O)NC(C)c1ccc2c(c1)OCO2 (configuration not stated) : 0.6

According to the records, this compound CC(O)c1cccc(NC(=O)Cc2cccc3ccccc23)c1 (configuration not stated) displays solubility kinetic of 44.7

According to the records, this compound "COC(=O)c1[nH]c2cc(OC)ccc2c1N=CN(C)C" displays solubility kinetic of 38.4

According to the records, this compound "CN(C)S(=O)(=O)c1cccc(NC(=O)C2CCN(S(=O)(=O)c3cccs3)CC2)c1" displays solubility kinetic of 23.4

According to the records, this compound CC12CN3CC(C)(CN(C1)C3c1ccccc1F)C2 (configuration not stated) displays solubility kinetic of 34.3

* * *

RUN PARAMETERS: buffer; pH 7.4; 200.0 µM
Assign y to entries whose solubility kinetic meets or exceeds 20 µg/mL; assign n to the rest.

Use the examples below as a reference point.
COc1cccc(C(=O)C(C#N)=C(SC)SC)c1 : y
COc1cccc(CC(=O)Nc2nc3ccccc3[nH]2)c1 : n
CCOc1ccccc1NC(=O)NCCCCc1ccccc1 : n

Consider the additional compound presented here.
Query block: Please tell me: is the compound "CN(C)/C=C/C(=O)c1ccc(Oc2ncccn2)cc1" at or over 20 µg/mL in terms of solubility kinetic?
Result block: y

* * *

RUN PARAMETERS: buffer; pH 7.4; 200.0 µM
EXPERIMENTAL READOUT: log10 solubility kinetic (log10 of the value in µg/mL)
Use the decimal logarithm of solubility kinetic (µg/mL).

The examples below pair each entry with its known result.
CCc1ccccc1NC(=O)c1ccc(OCc2c(C)noc2C)cc1 : 0.57
COc1ccc(CCNS(=O)(=O)c2ccc3[nH]c(=O)[nH]c3c2)cc1 : 1.05
Cc1c(Cl)cccc1NC(=S)Nc1ccc(S(=O)(=O)Nc2ncccn2)cc1 : 1.81
CC(=O)c1ccc(N2CCN(C(=S)NCc3ccco3)CC2)cc1 : 1.66
Cc1cc(NC(=O)c2cc(-c3ccncc3)nc3ccccc23)ccc1Br : 0.08
O=C(N1CCCC1)N1CCN(S(=O)(=O)c2ccccc2)CC1 : 1.54

Lab note: next molecule to report on.
According to the records, this molecule "O=C(CSCc1c(F)cccc1F)Nc1ccccc1" displays log10 solubility kinetic of 1.58

* * *

Each entry below lists one item and its recorded solubility kinetic value.
RUN PARAMETERS: buffer; pH 7.4; 200.0 µM
Only the number, expressed in µg/mL, is required.

The examples below pair each entry with its known result.
Cc1ccc(S(=O)(=O)c2c(C)c(C)c(C)[nH]c2=O)cc1 : 29.7
N/C(COc1cccc(Cl)c1)=N\O : 20.1

According to the records, this molecule "CN(C)c1nc(F)c(F)c(S(=O)(=O)c2ccccc2)c1F" displays solubility kinetic of 12.4

According to the records, this molecule "COCCN(CCOc1cc(C)cc(C)c1)Cc1ccc(Cl)cc1" displays solubility kinetic of 5.6

According to the records, this molecule "CC(=O)c1c(C)[nH]c(C(=O)Nc2cccc(C)n2)c1C" displays solubility kinetic of 21.4

According to the records, this molecule "N/C(=N\OC(=O)c1ccc(Cl)cc1Cl)c1ccncc1" displays solubility kinetic of 16.5

* * *

RUN PARAMETERS: buffer; pH 7.4; 200.0 µM
Class membership depends on solubility kinetic alone; the intervals are bin A: < 10 µg/mL; bin B: ≥ 10 µg/mL and < 40 µg/mL; bin C: ≥ 40 µg/mL

Cc1ccc(C2SCC(=O)N2c2ccccc2)cc1 (configuration not stated) : bin C

Consider the additional molecule presented here.
Query block: Hi, small favor: classify COCC1CCN(C(=O)c2oc3c(F)cccc3c2C)C1 (configuration not stated) by its solubility kinetic when you get a moment.
Result block: bin B

* * *

Each entry below lists one item and its recorded solubility kinetic value.
RUN PARAMETERS: buffer; pH 7.4; 200.0 µM
Only the number, expressed in µg/mL, is required.

COCc1[nH]c(=S)c(C#N)cc1C(=O)OC : 27.9
CC1Cc2ccccc2N1S(=O)(=O)c1cccc(C(=O)NCc2ccco2)c1 (centres undefined) : 14.7
CN(CC(=O)Nc1cccc(Cl)c1)C1=NS(=O)(=O)c2ccccc21 : 3.7

Lab note: next compound to report on.
According to the records, this compound "COc1ccccc1NC(=O)CCSc1nc(C)cc(C)n1" displays solubility kinetic of 38.4

* * *

RUN PARAMETERS: buffer; pH 7.4; 200.0 µM
Each entry below lists one item and its recorded log10 of solubility kinetic value.
Use the decimal logarithm of solubility kinetic (µg/mL).

The examples below pair each entry with its known result.
CCc1ccc(NC(=O)CCC(=O)c2ccccc2)cc1 : 0.88
CC(=O)Nc1ccc(C(=O)COC(=O)c2cccs2)c(F)c1 : 0.98
COC(=O)C1=C(C)N(C)C(=O)NC1c1cccc2ccccc12 (stereo unspecified) : 1.48
COC(=O)c1sccc1NC(=O)Nc1cccc(C(C)=O)c1 : 1.28

According to the records, this compound "CCc1nc2ccccc2c(C(=O)OCC(=O)NC2CCCC2)c1C" displays log10 of solubility kinetic of 1.69

According to the records, this compound "COc1ccc(CN2C(=O)c3cccc4cccc2c34)cc1F" displays log10 of solubility kinetic of 0.99

According to the records, this compound "CCc1cccc2c1NC(=O)C21OCCO1" displays log10 of solubility kinetic of 1.44

* * *

RUN PARAMETERS: buffer; pH 7.4; 200.0 µM
Assign yes (1) to entries whose solubility kinetic meets or exceeds 30 µg/mL; assign no (0) to the rest.

Use the examples below as a reference point.
O=C(O)c1ccccc1N1C(=O)C2C3CCC(C3)C2C1=O (centres undefined) : yes (1)
CC(=O)OC1OCCOC1NC(=S)Nc1ccc(C)cc1 (centres undefined) : yes (1)
CCOc1ccccc1-n1cnc(C#N)c1N : yes (1)

Consider the additional compound presented here.
Query block: Please tell me: is the compound "CC(=O)O.Fc1ccc(NC(=S)Nc2cccnc2)cc1" at or over 30 µg/mL in terms of solubility kinetic?
Result block: yes (1)

* * *

RUN PARAMETERS: buffer; pH 7.4; 200.0 µM
Each entry below lists one item and its recorded log10 of solubility kinetic value.
Use the decimal logarithm of solubility kinetic (µg/mL).

According to the records, this molecule "CC1(C)CC(=O)c2sc(NC(=O)c3ccccc3)nc2C1" displays log10 of solubility kinetic of 1.35

* * *

RUN PARAMETERS: buffer; pH 7.4; 200.0 µM
Each entry below lists one item and its recorded solubility kinetic value.

CCOc1ccccc1CN1CCN(C2CCC2)CC1CCO (stereo unspecified) : 39.9 µg/mL
COc1cc(C(=O)OCC(=O)N2CCCC2=O)cc(OC)c1C : > 48.2 µg/mL
O=C(CCCSc1nc2ccccc2[nH]1)NC1CCCCC1 : > 47.6 µg/mL
CN(Cc1nc(Cc2cccc(F)c2)no1)CC1CCOCC1 : 41.1 µg/mL
O=C(Nc1cccc2c1CCCC2)c1ccc(F)cc1 : 2.2 µg/mL

Lab note: next compound to report on.
According to the records, this compound "CCOc1ccc(S(=O)(=O)NCCC(=O)N2CCCN(C)CC2)cc1" displays solubility kinetic of 50.4 µg/mL

* * *

Each entry below lists one item and its recorded log10 of solubility kinetic value.
RUN PARAMETERS: buffer; pH 7.4; 200.0 µM
Use the decimal logarithm of solubility kinetic (µg/mL).

The examples below pair each entry with its known result.
Cc1cc2oc(=O)cc(CN3CCOCC3)c2cc1Cl : 0.63
CCNC(=S)Nc1cccc(S(=O)(=O)NC2=NCCC2)c1 : 1.58
CC(C)CNC(=O)c1cc(-c2ccc3c(c2)OCO3)on1 : -0.30
O=C1c2cccc3cccc(c23)C(=O)N1Cc1cccnc1 : 0.20
O=C(c1cccnc1)N1CCN(c2ccc3ccccc3n2)CC1 : 1.59
CC(C)N1CCN(Cc2cc3c(cc2Cl)OCO3)CC1CCO (stereo not given) : 1.60

According to the records, this molecule "CCCC(=O)N/C(N)=N/c1nc2ccccc2o1" displays log10 of solubility kinetic of 1.08

According to the records, this molecule "CC(C)(C)NC(=O)NC(=O)CN1CCN(c2ccccc2O)CC1" displays log10 of solubility kinetic of 1.65

According to the records, this molecule "COc1cccc(C(=O)NCc2ccc3c(c2)OCO3)c1" displays log10 of solubility kinetic of 1.57

According to the records, this molecule "COc1ccc2nc(NC(=O)c3ccccc3O)sc2c1" displays log10 of solubility kinetic of -0.15

According to the records, this molecule "Cc1cccc(NC(=O)N2CCC(NC(=O)C3CCCCC3)CC2)c1" displays log10 of solubility kinetic of 0.20

According to the records, this molecule Cc1ccc(N(CC2CO2)S(=O)(=O)c2ccccc2[N+](=O)[O-])cc1 (stereo not given) displays log10 of solubility kinetic of 1.56

According to the records, this molecule "Cc1ccc(CNC(=O)COC(=O)c2ccc(S(=O)(=O)N3CCOCC3)cc2)cc1" displays log10 of solubility kinetic of 0.81
